Overview of recorded screen value for various variants
B1: ICA1L peptide 453-468 (Islet cell autoantigen 1-like protein), 16-mer library wild type / NSP16 (ORF1ab Nsp16, residues 6799-7088) (parent)
chain 1: MSAWFNLFADLDPLSN
chain 2: SSQAWQPGVAMPNLYKMQRMLLEKCDLQNYGDSATLPKGIMMNVAKYTQLCQYLNTLTLAVPYNMRVIHFGAGSDKGVAPGTAVLRQWLPTGTLLVDSDLNDFVSDADSTLIGDCATVHTANKWDLIISDMYDPKTKNVTKENDSKEGFFTYICGFIQQKLALGGSVAIKITEHSWNADLYKLMGHFAWWTAFVTNVNASSSEAFLIGCNYLGKPREQIDGYVMHANYIFWRNTNPIQLSSYSLFDMSKFPLKLRGTAVMSLKEGQINDMILSLLSKGRLIIRENNRVVI

Variants of: B1
conditions: with NSP16 (ORF1ab Nsp16, residues 6799-7088); bait immobilised on MaxiSorp plates (10 µg), library pre-cleared on GST, 2 h binding at 4 °C, five washes; one round per day, days 1-4; value from days 2 and 3; keep out of graded; scale: average fractional NGS count over selection days 2 and 3
Give the value as a plain number.

Examples from the recorded data:
In [3]: df
Out[3]:
   variant_notation  observed
0       chain 1 S2L         0
1      chain 1 P13V         0
2       chain 1 N6R         0
3      chain 1 L11I  1.35e-05
4       chain 1 W4A         0
5       chain 1 A3P         0

Record request: screen value value, item chain 1 A3L
0

Record request: screen value value, item chain 1 L11P
0

Record request: screen value value, item chain 1 L11W
0

Record request: screen value value, item chain 1 S2D
0.00136

Record request: screen value value, item chain 1 F8Y
0

Record request: screen value value, item chain 1 S15R
0
